# system: p110α (Homo sapiens)
# Construct: His-tag; made in house; host or cells: Sf9 insect cells (baculovirus)
# Sequence (P42336 whole entry): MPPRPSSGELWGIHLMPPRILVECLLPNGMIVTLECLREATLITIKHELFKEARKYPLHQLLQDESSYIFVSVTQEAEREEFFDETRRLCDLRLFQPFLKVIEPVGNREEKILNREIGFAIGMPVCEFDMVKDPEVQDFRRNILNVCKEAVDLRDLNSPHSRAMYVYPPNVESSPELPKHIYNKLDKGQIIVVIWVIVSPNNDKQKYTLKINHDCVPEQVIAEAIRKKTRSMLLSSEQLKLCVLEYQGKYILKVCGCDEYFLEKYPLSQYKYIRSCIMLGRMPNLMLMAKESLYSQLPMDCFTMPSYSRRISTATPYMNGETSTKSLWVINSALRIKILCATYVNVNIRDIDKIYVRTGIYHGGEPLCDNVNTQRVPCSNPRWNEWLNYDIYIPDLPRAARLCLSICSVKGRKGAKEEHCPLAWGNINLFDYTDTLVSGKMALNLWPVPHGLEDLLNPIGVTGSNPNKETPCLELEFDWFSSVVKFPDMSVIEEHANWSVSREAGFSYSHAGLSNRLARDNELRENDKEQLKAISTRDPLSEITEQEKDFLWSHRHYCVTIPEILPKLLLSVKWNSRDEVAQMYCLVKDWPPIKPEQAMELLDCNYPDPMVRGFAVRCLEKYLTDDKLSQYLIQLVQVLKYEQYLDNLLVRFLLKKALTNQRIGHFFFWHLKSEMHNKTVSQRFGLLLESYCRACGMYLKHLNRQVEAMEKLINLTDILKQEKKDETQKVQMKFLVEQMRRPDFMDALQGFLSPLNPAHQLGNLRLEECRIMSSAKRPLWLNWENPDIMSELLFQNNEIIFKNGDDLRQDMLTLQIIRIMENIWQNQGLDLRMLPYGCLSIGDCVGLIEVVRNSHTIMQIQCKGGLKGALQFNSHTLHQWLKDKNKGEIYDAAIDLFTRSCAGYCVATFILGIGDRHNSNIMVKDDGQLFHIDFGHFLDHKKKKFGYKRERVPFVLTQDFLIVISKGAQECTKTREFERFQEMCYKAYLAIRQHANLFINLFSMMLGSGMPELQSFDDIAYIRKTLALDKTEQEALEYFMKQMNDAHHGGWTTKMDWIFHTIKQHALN
# Sequence (P27986 322-600 partner limits assumed): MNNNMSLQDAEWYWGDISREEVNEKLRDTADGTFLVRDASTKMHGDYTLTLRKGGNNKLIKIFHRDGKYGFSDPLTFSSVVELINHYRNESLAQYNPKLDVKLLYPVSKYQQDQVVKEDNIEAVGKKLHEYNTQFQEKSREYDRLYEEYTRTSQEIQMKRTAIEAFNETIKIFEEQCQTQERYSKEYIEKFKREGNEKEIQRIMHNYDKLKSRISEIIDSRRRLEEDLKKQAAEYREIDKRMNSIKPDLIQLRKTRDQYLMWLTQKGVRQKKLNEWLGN
# run-description: Biochemical PI3K inhibition assay, p110α
# settings: 10 μM ATP, two hours
pIC50: −log10 of the molar value.
# maps each entry to its pIC50

[
  {
    "compound": "CCN(/N=C/c1cnc2ccc(Br)cn12)S(=O)(=O)c1cc([N+](=O)[O-])c(NC(C)C(=O)O)cc1C (stereo not shown)",
    "pIC50": 7.96
  },
  {
    "compound": "Cc1ccc([N+](=O)[O-])cc1S(=O)(=O)N(/N=C/c1cnc2ccc(Br)cn12)C(C)C",
    "pIC50": 7.03
  },
  {
    "compound": "CCOC(=O)CN(/N=C/c1cnc2ccc(Br)cn12)S(=O)(=O)c1cc([N+](=O)[O-])ccc1C",
    "pIC50": 6.81
  },
  {
    "compound": "CCN(/N=C/c1cnc2ccc(Br)cn12)S(=O)(=O)c1cccc([N+](=O)[O-])c1",
    "pIC50": 7.26
  }
]

Data credit: paper PMC3004370
